# TARGET_SYSTEM: human Claudin18.2 (human)
# MEASUREMENT_DESCRIPTION: cell-based or functional assay
In plain terms, low CDC EC50, meaning strictly below 0.9 µg/mL, gives 1.0, and everything else gives 0.0.

Sample answers from the record:
231C11E9 (antibody, V domains shown) VH: EVMLVESGGGLVKPGGSLKLSCAASGFTFNNYVMCWVRQTPEKRLEWVATISSGNFYTYYPDSVKGRFTISRDNAKNTLYLQMSSLRSEDTAIYYCASLGRGNALDNWGQGTSVTVSS VL: DIVMTQSPASLTVTAKEKVTMSCRSSQSLLNSGNQKNYLTWYQQKPGQPPKLLIYWASTRESGVPDRFTGSGSGTDFTLTISSVQAEDLAVYYCQNDYSYPFTFGSGTKLEIK ... 0.0
268D7H9 (antibody, V domains shown) VH: QAYLQQSGAELVRSGASVKMSCKASGYTFTNYNIHWVKQTPGQGLEWIGYIYPGNGGNYYNQKFKGKATLTADTSSSTAYMQISSLTSEDSAVYFCARDYYGNSFAYWGQGTLVTVSA VL: DIAMTQSPSSLTVTAGEKVTMNCKSSQSLLNSGNQKNYLTWYQQKPGQPPKLLIYWASTRESGVPDRFTGSGSGTDFTLTISSVQAEDLAIYYCQNDYYYPLTFGAGTTLELK ... 0.0
240A8E7 (antibody, V domains shown) VH: QAYLQQSGAELVRSGASVKMSCKASGYTFTNYNIHWVKQTPGQGLEWIGYIYPGNGDNYYNQKFKGKATLTADTSSSTAYMQISSLTSEDSAVYFCARDYYGNSFAYWGQGTLVTVSA VL: DVVMTQSPSSLTVTAGEKVTMNCKSSQSLLNSGNQKNYLTWYQQKPGQPPKMLIYWASTRESGVPDRFTGSGSGTDFTLTISSVQAEDLAIYYCQNDYYYPFTFGAGTKLELK ... 0.0

# input Could you please tell me whether CDC EC50 recorded for 420H3H9 (antibody, V domains shown) VH: DVQLVESGGGLVQPGGSRKLSCAASGFTFSSFGMHWVRQAPEKGLEWVAYISSGSSTIYYAHSVKGRFTISRDNPKNTLFLQMTSLGSEDTAMYYCARFYYGNSFAYWGQGTLVTVSA VL: DIVMTQSPSSLTVTAGEKVTLSCKSSQSLLNSGNQKNYLTWYQQKPGQPPKMLIYWASTRESGVPDRFTGSGSGTDFTLTISSVQAEDLADYYCQNAYTYPLTFGAGTRLELK is less than 0.9 µg/mL?
# output 1.0
